target: human PD-1 expressed on cells (human, UniProt Q15116 25-288); experiment: cell-based or functional assay
Sequence (Q15116 25-288): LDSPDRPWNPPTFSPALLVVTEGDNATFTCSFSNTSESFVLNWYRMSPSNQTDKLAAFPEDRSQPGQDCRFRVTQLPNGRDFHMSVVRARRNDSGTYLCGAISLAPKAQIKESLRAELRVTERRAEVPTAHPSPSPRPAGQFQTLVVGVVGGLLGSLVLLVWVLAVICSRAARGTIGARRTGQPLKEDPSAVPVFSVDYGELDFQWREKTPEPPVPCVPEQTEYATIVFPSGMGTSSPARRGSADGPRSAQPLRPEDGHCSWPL
I'd appreciate it if you could supply IL-2 release in HuT78/PD-1, Top line values for the items below.
Express your answer in pg/mL, writing the number without its unit.

IN: # lookup: IL-2 release in HuT78/PD-1, Top line of hu326-2 E46K (antibody, V domains shown, mAb; constant regions not restated (hu326-1 is IgG2 / kappa); Back mutation to murine) VH: QVQLVQSGSELKKPGASVKVSCKASGYTFTNYGMNWVRQAPGQGLKWMGWINNNNGEPTYAQGFRGRFVFSLDTSASTAYLQISSLKTEDTAVYFCARDVMDYWGQGTTVTVSS VL: DIVLTQSPASLAVSPGQRATITCRASESVDNYGYSFMHWYQQKPGQPPKLLIYRASNLESGVPARFSGSGSRTDFTLTINPVEANDTANYYCQQSKEYPTFGGGTKVEIK
OUT: 1240

IN: Likewise for hu326-2 A76V (antibody, V domains shown, mAb; constant regions not restated (hu326-1 is IgG2 / kappa); Forward mutation to human) VH: QVQLVQSGSELKKPGASVKVSCKASGYTFTNYGMNWVRQAPGQGLEWMGWINNNNGEPTYAQGFRGRFVFSLDTSVSTAYLQISSLKTEDTAVYFCARDVMDYWGQGTTVTVSS VL: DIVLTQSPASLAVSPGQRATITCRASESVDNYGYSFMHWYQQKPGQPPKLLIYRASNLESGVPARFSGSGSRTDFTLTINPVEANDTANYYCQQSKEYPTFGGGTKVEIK ?
OUT: 1000

IN: Note, next up: hu326-2 S85N (antibody, V domains shown, mAb; constant regions not restated (hu326-1 is IgG2 / kappa); Back mutation to murine) VH: QVQLVQSGSELKKPGASVKVSCKASGYTFTNYGMNWVRQAPGQGLEWMGWINNNNGEPTYAQGFRGRFVFSLDTSASTAYLQISNLKTEDTAVYFCARDVMDYWGQGTTVTVSS VL: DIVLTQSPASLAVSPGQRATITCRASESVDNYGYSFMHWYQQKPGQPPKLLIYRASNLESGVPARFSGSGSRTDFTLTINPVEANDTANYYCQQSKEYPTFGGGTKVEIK
OUT: 932

The reported measurements were obtained from patent US8735553.
